Test system: Escherichia coli
PROTOCOL_NOTES: Binding affinity to Escherichia coli MRE600 ribosome assessed as protection against N1-cyclohexyl-N3-(2-morpholino)ethylcarbodiimide p-toluenesulfonate-induced modifications at nucleotide U2506 in peptidyl transferase center of 23S rRNA at 5 uM by chemical footprinting relative to control
We use 0.4 as the dividing line for Activity: on or above the line is satisfied, below is not satisfied.

Query block: Check the entry "C=C[C@]1(C)C[C@@H](OC(=O)CSCCN(CC)CC)[C@]2(C)[C@H](C)CC[C@]3(CCC(=O)[C@H]32)[C@@H](C)[C@@H]1O" : does Activity equal or exceed 0.4?
Result block: not satisfied

Query block: Continue with "C=C[C@]1(C)C[C@@H](OC(=O)Cn2cc(COC[C@H]3O[C@@H](n4cc(C)c(=O)[nH]c4=O)C[C@@H]3O)nn2)[C@]2(C)[C@H](C)CC[C@]3(CCC(=O)[C@@H]32)[C@@H](C)[C@@H]1O"
Result block: satisfied

Query block: Continue with "C=C[C@]1(C)C[C@@H](OC(=O)Cn2cc(CO[C@@H]3C[C@@H](n4cc(C)c(=O)[nH]c4=O)O[C@H]3CO)nn2)[C@]2(C)[C@H](C)CC[C@]3(CCC(=O)[C@@H]32)[C@@H](C)[C@@H]1O"
Result block: satisfied

Query block: Continue with "C=C[C@]1(C)C[C@@H](OC(=O)Cn2cc([C@]3(O)[C@@H](CO)O[C@@H](n4ccc(=O)[nH]c4=O)[C@@H]3O)nn2)[C@]2(C)[C@H](C)CC[C@]3(CCC(=O)[C@@H]32)[C@@H](C)[C@@H]1O"
Result block: not satisfied

Query block: Continue with C=C[C@]1(C)C[C@@H](OC(=O)Cn2cc([C@@H](O)[C@@H]3O[C@H](n4cc(C)c(=O)[nH]c4=O)C[C@H]3O)nn2)[C@]2(C)[C@H](C)CC[C@]3(CCC(=O)[C@@H]32)[C@@H](C)[C@@H]1O (mixture of isomers)
Result block: not satisfied

Query block: Continue with "C=C[C@]1(C)C[C@@H](OC(=O)Cn2cc(Cc3ccccc3)nn2)[C@]2(C)[C@H](C)CC[C@]3(CCC(=O)[C@@H]32)[C@@H](C)[C@@H]1O"
Result block: not satisfied

Query block: Continue with "C=C[C@]1(C)C[C@@H](OC(=O)Cn2cc([C@]3(O)[C@H](O)[C@@H](CO)O[C@H]3n3ccc(=O)[nH]c3=O)nn2)[C@]2(C)[C@H](C)CC[C@]3(CCC(=O)[C@@H]32)[C@@H](C)[C@@H]1O"
Result block: satisfied

Query block: Continue with "C=C[C@]1(C)C[C@@H](OC(=O)Cn2cc(CCCc3ccccc3)nn2)[C@]2(C)[C@H](C)CC[C@]3(CCC(=O)[C@@H]32)[C@@H](C)[C@@H]1O"
Result block: not satisfied

Query block: Continue with "C=C[C@]1(C)C[C@@H](OC(=O)Cn2cc(Cn3cnc4c(N)ncnc43)nn2)[C@]2(C)[C@H](C)CC[C@]3(CCC(=O)[C@@H]32)[C@@H](C)[C@@H]1O"
Result block: satisfied

Query block: Continue with "C=C[C@]1(C)C[C@@H](OC(=O)Cn2cc(C[C@H](O)[C@@H]3O[C@H](n4cc(C)c(=O)[nH]c4=O)C[C@H]3O)nn2)[C@]2(C)[C@H](C)CC[C@]3(CCC(=O)[C@@H]32)[C@@H](C)[C@@H]1O"
Result block: not satisfied

Query block: Continue with "C=C[C@]1(C)C[C@@H](OC(=O)Cn2cc(Cn3ccc(N)nc3=O)nn2)[C@]2(C)[C@H](C)CC[C@]3(CCC(=O)[C@@H]32)[C@@H](C)[C@@H]1O"
Result block: satisfied

Query block: Continue with "C=C[C@]1(C)C[C@@H](OC(=O)Cn2cc(CCn3cnc4c(N)ncnc43)nn2)[C@]2(C)[C@H](C)CC[C@]3(CCC(=O)[C@@H]32)[C@@H](C)[C@@H]1O"
Result block: not satisfied

Query block: Continue with "C=C[C@]1(C)C[C@@H](OC(=O)Cn2cc(C[C@@H](O)[C@@H]3O[C@H](n4cc(C)c(=O)[nH]c4=O)C[C@H]3O)nn2)[C@]2(C)[C@H](C)CC[C@]3(CCC(=O)[C@@H]32)[C@@H](C)[C@@H]1O"
Result block: not satisfied

Query block: Continue with "C=C[C@]1(C)C[C@@H](OC(=O)Cn2cc(CO[C@@H]3[C@H](O)[C@@H](CO)O[C@H]3n3ccc(=O)[nH]c3=O)nn2)[C@]2(C)[C@H](C)CC[C@]3(CCC(=O)[C@@H]32)[C@@H](C)[C@@H]1O"
Result block: satisfied

Query block: Continue with "C=C[C@]1(C)C[C@@H](OC(=O)CO)[C@]2(C)[C@H](C)CC[C@]3(CCC(=O)[C@@H]32)[C@@H](C)[C@@H]1O"
Result block: satisfied

Query block: Continue with "C=C[C@]1(C)C[C@@H](OC(=O)Cn2cc(CCc3ccccc3)nn2)[C@]2(C)[C@H](C)CC[C@]3(CCC(=O)[C@@H]32)[C@@H](C)[C@@H]1O"
Result block: not satisfied

Query block: Continue with "C=C[C@]1(C)C[C@@H](OC(=O)Cn2cc(CCCn3cnc4c(N)ncnc43)nn2)[C@]2(C)[C@H](C)CC[C@]3(CCC(=O)[C@@H]32)[C@@H](C)[C@@H]1O"
Result block: not satisfied

Query block: Continue with "C=C[C@]1(C)C[C@@H](OC(=O)Cn2cc(CCn3cc(C)c(=O)[nH]c3=O)nn2)[C@]2(C)[C@H](C)CC[C@]3(CCC(=O)[C@@H]32)[C@@H](C)[C@@H]1O"
Result block: satisfied

Query block: Continue with "C=C[C@]1(C)C[C@@H](OC(=O)Cn2cc(Cn3cc(C)c(=O)[nH]c3=O)nn2)[C@]2(C)[C@H](C)CC[C@]3(CCC(=O)[C@@H]32)[C@@H](C)[C@@H]1O"
Result block: satisfied

Query block: Continue with "C=C[C@]1(C)C[C@@H](OC(=O)Cn2cc(CCCn3ccc(N)nc3=O)nn2)[C@]2(C)[C@H](C)CC[C@]3(CCC(=O)[C@@H]32)[C@@H](C)[C@@H]1O"
Result block: not satisfied

All values here come from ChEMBL document CHEMBL1156624.
